# TARGET_OF_ASSAY: human CD28 (human, UniProt P10747 19-220)
# TEST_NAME: cell-based or functional assay
Kindly supply the reported MLR assay (EC50) values for the records listed here.
Reply numerically in nM, unit not repeated.

[ask] Reported MLR assay (EC50) for 1h-99-241 (other) VH: EVQLLESGGGLVQPGGSLRLSCAASGFTFDSANMSWVRQAPGKGLEWVSWIENNGPQTFYADSVKGRFTISRDDSKNTLYLQMNSLRAEDTAVYYCAKSPFGPLYGFDYRGQGTLVTVSS : what is it?
[reply] 22

[ask] Reported MLR assay (EC50) for 1h-35-5 (other) VL: DIQMTQSPSSLSASVGDRVTITCRASQYIGSAISWYQQKPGRAPKLLIYRASYLQSGVPSRFSGSGSGTDFTLTISSLQPEDFATYYCQQLAIRPFTFGQGTKVGIKR : what is it?
[reply] 248

[ask] Reported MLR assay (EC50) for 1h-99-266 (other) VH: EVQLLESGGGLVQPGGSLRLSCAASGFTFYRSNMSWVRQAPGKGLEWVSWIEAPGVQTFYADSVRGRFTISRDNSKNTLYLQMNSLRAEDTAVYYCARSPFGPLYGFDYRGQGTLVTVSS : what is it?
[reply] 4
